organism: Rattus norvegicus; assay: DrugMatrix - Regimen: Daily Repeat; type: toxicity, organism-based, Sprague-Dawley; design: regimen Daily Repeat, gender Male, age 6-8 weeks; conditions: in vivo, po, 10 mg/kg, 120 h, tissue Plasma, route oral GAVAGE, dose level Low, time 5 day, vehicle .5 % CMC
property.name: LIPASE (u/L)
A number alone suffices; assume u/L.

Record excerpt, results attached:
O=C1CN=C(c2ccccc2)c2cc([N+](=O)[O-])ccc2N1 [NITRAZEPAM] | 9.33
COc1c(C)c2c(c(O)c1C/C=C(\C)CCC(=O)OCCN1CCOCC1)C(=O)OC2 [MYCOPHENOLATE MOFETIL] | 9.67
CC(=O)O[C@]1(C(C)=O)CC[C@H]2[C@@H]3C=C(Cl)C4=CC(=O)CC[C@]4(C)[C@H]3CC[C@@]21C [CHLORMADINONE ACETATE] | 9.67

Please look at the following molecule next.
INPUT: Please list LIPASE recorded for the molecule NS(=O)(=O)c1cc2c(cc1Cl)NCNS2(=O)=O [HYDROCHLOROTHIAZIDE]
OUTPUT: 9

The measurements presented in this section are drawn from ChEMBL document CHEMBL3885881.
